TEST_DETAILS: qHTS assay to identify small molecule agonists of the AP-1 signaling pathway - cell viability counter screen (AID 1159525); note: nearly all actives have a fitted effect of over 55% in size
EXPERIMENTAL_CONTEXT: ME-180 (cervical carcinoma) AP-1-bla cells viability, ATP luminescence, 5 h; series mostly up to 76.8 µM
Records with an inconclusive call do not appear. Active and inactive are the calls of the source. Calls come from the whole dose curve.
MEASUREMENT_LABEL: viability change, negative = cytotoxic

Example molecules with recorded viability change, negative = cytotoxic:
# MOLECULE, viability change, negative = cytotoxic
data = [
    ("Cc1nccn1-c1ccc(Sc2cccc(C3(C(N)=O)CCOCC3)c2)cc1", "inactive"),
    ("CCCCC(CC)CNCC(CC)CCCC (configuration not stated)", "inactive"),
    ("O=C(N[C@@H](c1ccccc1)[C@@H]1CCCCN1)c1cccc(C(F)(F)F)c1Cl", "inactive"),
    ("CCCOC(=O)c1ccc(N)cc1", "inactive"),
    ("CC#N", "inactive"),
    ("N#C[C@@H]1C[C@@H]2C[C@@H]2N1C(=O)[C@@H](N)C12CC3CC(CC(O)(C3)C1)C2", "inactive"),
    ("O=C1OCCN1/N=C/c1ccc([N+](=O)[O-])o1", "inactive"),
    ("COc1ccc(C(=O)c2cccc(O)c2)c(OC)c1", "inactive"),
]

Parameters: items (list). Returns: viability change, negative = cytotoxic for each item.
1. CCCCCCCC/C=C\CCCCCCCC(=O)OC
2. C=CC(C)(O)CCCC(C)CCCC(C)CCCC(C)C (configuration not stated)
3. CCCCCCCCCCCCCCC[C@H](O)[C@@H](N)CO
4. CCn1nc(C)c2c1C(=O)NCC(c1ccc(O)cc1)=N2

1. inactive
2. inactive
3. inactive
4. inactive
